# measurementDescription: Binding affinity to biotin labelled 5'-CGCGCGCGTTTTCGCGCGCG-3' hairpin dsDNA (unknown origin) immobilized on biosensor chip by surface plasmon resonance analysis
# Set-up: species or system Homo sapiens
# setupConditions: read-out: Kd
pKd: −log10 of the molar value.
measurementType: pKd

Below, 2 compounds whose answers are already recorded.
[O-][N+]1=C(Nc2ccc(CCc3ccc(NC4=[N+]([O-])CCN4)cc3)cc2)NCC1    4.11
c1cc(NC2=NCCN2)ccc1CCc1ccc(NC2=NCCN2)cc1    4.71

[A] O=C(Nc1ccc(NC2=[N+]([O-])CCN2)cc1)c1ccc(NC2=[N+]([O-])CCN2)cc1
[B] [O-][N+]1=C(Nc2ccc(Nc3cccc(NC4=[N+]([O-])CCN4)c3)cc2)NCC1
[C] O=C(Nc1ccc(NC2=NCCN2)cc1)Nc1ccc(NC2=NCCN2)cc1
Task: Please list the entries, largest pKd first. Your answer should be the labels, listed in the requested order.
Output: A, B, C
(A: 4.73, B: 4.18, C: 3.80)
